System: CCRIS mutagenicity, Ames/micronucleus/aberration tests
assay notes: CCRIS mutagenicity studies
test parameters: Test System: E. COLI; Strain/Indicator: WP2 (PKM101); Metabolic Activation: NONE; Method: STANDARD PLATE
Activity calls are given as the source filed them. How the calls were made is not given here.
Possible outcomes: True (active), False (inactive)

{"columns": ["item smiles", "label value"],
 "data": [
  ["[O]=[Cr](=[O])([OH])[O][Cr](=[O])(=[O])[OH]", "True"],
  ["COc1ccc(N)cc1", "False"],
  ["O=C1CN(/N=C/c2ccc([N+](=O)[O-])o2)C(=O)N1", "True"],
  ["CC1=CC(=O)c2c(O)cccc2C1=O", "False"],
  ["CN(C)N", "True"]
]}

* * *

Test system: CCRIS mutagenicity, Ames/micronucleus/aberration tests
assay notes: CCRIS mutagenicity studies
test parameters: Test System: AMES SALMONELLA TYPHIMURIUM; Strain/Indicator: TA1537; Metabolic Activation: NONE; Method: STANDARD PLATE
Activity calls are given as the source filed them. The rule behind the calls is not given here.
Labels: active, inactive

{"columns": ["item smiles", "label value"],
 "data": [
  ["O=[N+]([O-])c1ccccc1OS(=O)(=O)c1cccc2cccnc12", "inactive"],
  ["C[Si](C)(Cl)Cl", "inactive"],
  ["CCOC(=O)CC(=O)CCl", "inactive"],
  ["CC(C)CN(C(=O)CCCl)c1snc2ccccc12", "inactive"],
  ["COc1cc(/C=C/C(=O)CC(=O)/C=C/c2ccc(O)c(OC)c2)ccc1O", "inactive"],
  ["C(=Nc1ccccc1)c1cccc2cccnc12", "inactive"],
  ["Cc1ncc[nH]1", "inactive"],
  ["Nc1ccc(Cl)c(N)c1", "inactive"],
  ["NC(=O)[C@@H]1CCCN1C(=O)[C@H](Cc1cnc[nH]1)NC(=O)[C@@H]1CCC(=O)N1", "inactive"],
  ["COc1ccc(Nc2c3ccccc3nc3ccccc23)cc1", "active"],
  ["O=C(Nc1ccccc1)Nc1snc2ccccc12", "inactive"],
  ["Nc1ncnc2c1ncn2[C@H]1CC[C@@H](CO)O1", "inactive"],
  ["Nc1ccc2ccccc2c1N=Nc1ccccc1", "inactive"]
]}

* * *

Tested on: CCRIS mutagenicity, Ames/micronucleus/aberration tests
assay notes: CCRIS mutagenicity studies
test parameters: Test System: AMES SALMONELLA TYPHIMURIUM; Strain/Indicator: TA1535; Metabolic Activation: HAMSTER, LIVER, S-9, AROCLOR 1254 (10 OR 30%); Method: PREINCUBATION
Calls of active or inactive are those of the source. How the calls were made is not given here.

{"columns": ["compound", "subject of test", "mutagenic call"],
 "data": [
  ["NC(=O)c1ccccc1O", "CCRIS mutagenicity, Ames/micronucleus/aberration tests", "inactive; negative"],
  ["Oc1cc(Cl)c(Cl)c(Cl)c1Cl", "CCRIS mutagenicity, Ames/micronucleus/aberration tests", "inactive; negative"],
  ["CCCCCCC[CH2][Sn]([CH2]CCCCCCC)([S]CC(=O)OCCCCCC(C)C)[S]CC(=O)OCCCCCC(C)C", "CCRIS mutagenicity, Ames/micronucleus/aberration tests", "inactive; negative"],
  ["CCC(O)CN (stereo not drawn)", "CCRIS mutagenicity, Ames/micronucleus/aberration tests", "inactive; negative"],
  ["CCOP(=S)(OCC)Oc1cc(C)nc(C(C)C)n1", "CCRIS mutagenicity, Ames/micronucleus/aberration tests", "inactive; negative"],
  ["Cc1c(C)c2c(c(C)c1OC(=O)CCC(=O)O)CC[C@@](C)(CCC[C@H](C)CCC[C@H](C)CCCC(C)C)O2", "CCRIS mutagenicity, Ames/micronucleus/aberration tests", "inactive; negative"],
  ["Oc1ccc(Cl)c(Cl)c1Cl", "CCRIS mutagenicity, Ames/micronucleus/aberration tests", "inactive; negative"],
  ["CN1C(CSCC(F)(F)F)Nc2cc(Cl)c(S(N)(=O)=O)cc2S1(=O)=O (stereo not drawn)", "CCRIS mutagenicity, Ames/micronucleus/aberration tests", "inactive; negative"],
  ["CCN(Cc1ccccc1)c1ccccc1", "CCRIS mutagenicity, Ames/micronucleus/aberration tests", "inactive; negative"],
  ["CCCCC(CC)COC(=O)c1ccc(C(=O)OCC(CC)CCCC)c(C(=O)OCC(CC)CCCC)c1 (stereo not drawn)", "CCRIS mutagenicity, Ames/micronucleus/aberration tests", "inactive; negative"],
  ["Cc1ccccc1C#N", "CCRIS mutagenicity, Ames/micronucleus/aberration tests", "inactive; negative"],
  ["O=S(=O)(O)c1cc(S(=O)(=O)O)c2c(N=Nc3ccccc3)c(O)ccc2c1", "CCRIS mutagenicity, Ames/micronucleus/aberration tests", "inactive; negative"],
  ["CCCCOC(C)=O", "CCRIS mutagenicity, Ames/micronucleus/aberration tests", "inactive; negative"],
  ["c1ccc2c(c1)Oc1ccccc1S2", "CCRIS mutagenicity, Ames/micronucleus/aberration tests", "inactive; negative"],
  ["COCCO", "CCRIS mutagenicity, Ames/micronucleus/aberration tests", "inactive; negative"],
  ["Clc1cccc2ccccc12", "CCRIS mutagenicity, Ames/micronucleus/aberration tests", "inactive; negative"],
  ["CCCCCCCCCCCCCCCCCCCC", "CCRIS mutagenicity, Ames/micronucleus/aberration tests", "inactive; negative"],
  ["CCCCN(CC)CC", "CCRIS mutagenicity, Ames/micronucleus/aberration tests", "inactive; negative"],
  ["C=C(CC)C(=O)c1ccc(OCC(=O)O)c(Cl)c1Cl", "CCRIS mutagenicity, Ames/micronucleus/aberration tests", "inactive; negative"],
  ["N[C@@H](Cc1c[nH]c2ccccc12)C(=O)O", "CCRIS mutagenicity, Ames/micronucleus/aberration tests", "inactive; negative"],
  ["NC(=O)c1ccccc1", "CCRIS mutagenicity, Ames/micronucleus/aberration tests", "inactive; negative"],
  ["COC(=O)[C@H]1[C@H]2C[C@@H]3c4[nH]c5cc(OC)ccc5c4CCN3C[C@H]2C[C@@H](OC(=O)/C=C/c2cc(OC)c(OC)c(OC)c2)[C@@H]1OC", "CCRIS mutagenicity, Ames/micronucleus/aberration tests", "inactive; negative"],
  ["COC(=O)c1ccc(C=O)cc1", "CCRIS mutagenicity, Ames/micronucleus/aberration tests", "inactive; negative"]
]}
